tested on: brains, heart, liver, muscle, and DRG of the NHPs; test: Maturation of TTM-001 and TTM-002 capsids, NGS enrichment in NHP tissues; type: in vivo; conditions: NHP liver DNA; NGS; relative to AAV9 control
Classes (Fold Enrichment relative to AAV9, Liver DNA (NHP)): bottom range: < 1 fold; center range: ≥ 1 fold and < 3 fold; top range: ≥ 3 fold

Examples with answers:
                              sequence_code  assigned_class
0                        KPRFGSGSPHSKAQNQQT    bottom range
1                        KTINGSGSPHSGKRNQQT       top range
2                        KTINGSISPHCPAQNQQT    bottom range
3                        KTINGSGSPHSKRRAQQT       top range
4  KTINGSRSPHAWAQNQQT (peptide inserted in AAV capsid)       top range
5                        KTINGSGSPHSKAQSRKT    center range
6                        KTINGSGSPHSKARISQT    center range
7                        KTQRKSGSPHSKAQNQQT    center range

Then there is this sequence:
Query: # bin label for "KTINGSGSPHSKKVFQQT"
Response: top range

###

Tested on: brain
Assay: Maturation of TTM-002 capsid, NGS enrichment in brain of CD-1 Outbred mice
Format: in vivo
Settings: NGS fold-enrichment in the brain of CD-1 Outbred mice; intravenous, 1.0×10^12 VG/dose, 14 days; RNA; relative to non-matured TTM-002 control
From the text: This Example describes maturation of the TTM-001 (SEQ ID NO: 981 (amino acid) and 983 (DNA), comprising SEQ ID NO: 941) and TTM-002 (SEQ ID NO: 982 (amino acid) and 984 (DNA), comprising SEQ ID NO: 2) capsid variants to further enhance their transduction and biodistribution in the central nervous system and evolve the AAV capsid variants to provide further cross-species compatibility. […]
Entries and their Fold enrichment over TTM-002 values follow.
Just the number, please, no unit after it.

Example cases with answers are listed next.
        sequence_code             reported_property  numeric_value
0  KTIKDNDSPHKSGQNQQT  Fold enrichment over TTM-002           2.27
1  KTINGHDSPHLLWQNQQT  Fold enrichment over TTM-002           2.12
2  KDIMGHDSPHKSGQNQQT  Fold enrichment over TTM-002           2.23
3  KMESGHDSPHKSGQNQQT  Fold enrichment over TTM-002           2.18
4  KQEVGHDSPHKSGQNQQT  Fold enrichment over TTM-002           2.07
5  KMDAGHDSPHKSGQNQQT  Fold enrichment over TTM-002           2.15
6  KTINGHDSPHKRGQHRQT  Fold enrichment over TTM-002           4.20
7  KIEIGHDSPHKSGQNQQT  Fold enrichment over TTM-002           2.30

Now examine the next entry.
Query: For the sequence shown here, "KTINGHLSPHYFGQNQQT" , give the reported Fold enrichment over TTM-002.
Response: 2.41
